assay: chemical genetic growth profiling, strain panel (AID 1159580);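 note: tested at 20 µM; growth read once vehicle control cultures reached saturation at 30 °C; 1 = growth at the plate median or of vehicle wells; lower values mean less growth of the strain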; conditions: S. cerevisiae deletion strains, growth OD, locus YMR058W, strain fet3
The whole screen tested about 5,500 compounds, of which about 2,000 (36%) were called active. Another 18% or so got no clear call; they are omitted. Cut-off read from the data, not from the text of the source: active = normalized growth mostly below about 0.91 (no sharp cut-off); inconclusive = no clear call, values can overlap the other calls; inactive = mostly above about 0.92. This is one part of the list.
Reply using exactly one outcome from label 1 = active, label 0 = inactive

Query: Name the outcome recorded for O=C(O)CCCCCCCC(=O)O in the assay.
Response: label 0

Query: Hey, what did the test say about Cc1cc(CC(=O)O)n(C)c1C(=O)c1ccc(Cl)cc1 ?
Response: label 0

Query: Outcome? Clc1ccc(COC(Cn2ccnc2)c2ccc(Cl)cc2Cl)c(Cl)c1 (stereo unspecified)
Response: label 1

Query: Recorded call for Cc1ccc(C(=O)c2ccc(CC(=O)O)n2C)cc1 ?
Response: label 0

Query: For C=C[C@@]1(C)CC(=O)[C@@]2(O)[C@](C)(O1)[C@@H](OC(C)=O)[C@@H](O)C1C(C)(C)CC[C@H](O)[C@@]12C (stereo partly specified) , which call appears in the assay record?
Response: label 0

Query: So what was the verdict on Clc1ccc(CO/N=C(/Cn2ccnc2)c2ccc(Cl)cc2Cl)c(Cl)c1 in this test?
Response: label 1

Query: Status in this test for CC(C)c1nc(N(C)S(C)(=O)=O)nc(-c2ccc(F)cc2)c1/C=C/[C@@H](O)C[C@@H](O)CC(=O)O ?
Response: label 0

Query: Can you look up the reported call for Clc1ccc(COC(Cn2ccnc2)c2ccc(Cl)cc2Cl)cc1 (stereo unspecified) for me?
Response: label 1

Query: Record request — test call for NCCCCCC(=O)O
Response: label 0

Query: What did this assay record as the result for NCCCCC(=O)O ?
Response: label 0

Query: // outcome(item) with item = Oc1c(Cl)cc(Cl)c(Cl)c1Cc1c(O)c(Cl)cc(Cl)c1Cl
Response: label 1

---

experiment: chemical genetic growth profiling, strain panel (AID 1159580);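 note: tested at 20 µM; growth read once vehicle control cultures reached saturation at 30 °C; 1 = growth at the plate median or of vehicle wells; lower values mean less growth of the strain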; conditions: S. cerevisiae deletion strains, growth OD, locus YDL101C, strain DUN1, active compounds read low
Among all 5,500 compounds or so, about 2,000 (36%) were called active. About 18% were inconclusive and are not listed. The list shows a part of the results.
Kindly supply the reported normalized growth values for the records listed here.

Query: Consider the compound C[C@]12CCC3c4ccc(OC(=O)c5ccccc5)cc4CCC3C1CCC2=O (stereo partly specified) . State its measured normalized growth.
Response: 1 (inactive)

Query: Item Cc1c(S(=O)(=O)Nc2cccc([N+](=O)[O-])c2)sc2ccc(Cl)cc12 : provide normalized growth
Response: 0.963 (inactive)

Query: Tell me its normalized growth given COC1C=CC23c4cc5c(cc4CN(CC2O)[C@@H]3C1)OCO5 (stereo partly specified) as the entry.
Response: 1.04 (inactive)

Query: Please give measured normalized growth of the following entry: Cc1onc(-c2ccccc2)c1-c1ccc(S(N)(=O)=O)cc1
Response: 1 (inactive)

Query: Return reported normalized growth. Input compound: COC(=O)[C@@H]1OC(=O)C2OC23[C@@]1(C)CCC1[C@@]2(C)CCC(=O)C(C)(C)C2C[C@@H](OC(C)=O)[C@]13C (stereo partly specified)
Response: 1.04 (inactive)

Query: Please give the documented normalized growth of CC(C)(C)C1=C(C#N)C(c2c(Cl)cccc2Cl)C(C#N)=C(N)O1 (stereo unspecified)
Response: 0.979 (inactive)

Query: Find the measured normalized growth of CC(=O)O[C@@H]1CC2C(C)(C)[C@@H](O)CC[C@]2(C)C2CC[C@@]3(C)[C@H](c4ccoc4)OC(=O)[C@H]4O[C@]43[C@@]21C (stereo partly specified) and report it.
Response: 1.02 (inactive)

Query: Return reported normalized growth. Input compound: O=S(=O)(c1ccc(Cl)cc1)c1cc(C(F)(F)F)cc(C(F)(F)F)c1
Response: 1.01 (inactive)

Query: Complete the entry with normalized growth for NNC(=O)c1cnn(-c2ccc(Cl)cc2)c1C(F)(F)F
Response: 0.993 (inactive)

Query: Hello, please tell me recorded normalized growth for this one: C[C@]12CCC3c4ccc(O)cc4CCC3C1CCC2=O (stereo partly specified)
Response: 0.987 (inactive)

Query: Supply measured normalized growth of CC(=O)O[C@@H]1CC2C(C)(C)[C@H](O)CC[C@]2(C)C2CC[C@@]3(C)[C@H](c4ccoc4)OC(=O)[C@H]4O[C@]43[C@@]21C (stereo partly specified) in your reply.
Response: 1.02 (inactive)

Query: Determine its reported normalized growth: N#Cc1cccc(CSC2=NCN(C3CC3)CN2)c1
Response: 0.98 (inactive)

Query: Fill in normalized growth for record CN1CCC[C@@H]1CCO[C@](C)(c1ccccc1)c1ccc(Cl)cc1
Response: 1.01 (inactive)

Query: Give the reported normalized growth for this compound. c1ccc(-c2ccc(-c3csc(-c4cccnc4)n3)cc2)cc1
Response: 0.972 (inactive)

Query: Tell us which normalized growth value is on record for CC(=O)O[C@]1(C)CC[C@@]23CC1C(C)(C)[C@@H]2CC[C@H]3C
Response: 0.981 (inactive)

Query: Recall and state the measured normalized growth for Clc1cc(Cl)cc(C=NCc2ccccc2)c1 .
Response: 0.964 (inactive)

Query: Identify measured normalized growth associated with O=C(Nc1cc(Cl)ccc1O)c1ccccc1CSc1ccc(Cl)cc1
Response: 0.989 (inactive)

Query: Please give measured normalized growth of the following entry: Brc1cccc(C=NCc2ccccc2)c1
Response: 0.888 (active)

Query: Return normalized growth for the following compound: Cc1oncc1C(=O)Nc1ccc(C(F)(F)F)cc1
Response: 1.02 (inactive)

Query: Give normalized growth for the following compound: Cc1onc2c(=O)n(-c3ccccc3)nc(-c3ccccc3)c12
Response: 0.954 (inactive)

Query: Provide measured normalized growth value, entry: OC[C@H]1O[C@@H](n2cnc3c(NCc4ccco4)ncnc32)[C@H](O)[C@@H]1O
Response: 1.03 (inactive)
